Assay: Pharmacokinetics of LUM001 after oral gavage in rats
Format: in vivo
Conditions: both sexes, Sprague Dawley, rat, plasma, 30 mg/kg, single oral gavage 30 mg/kg free form, fasted
property: Tmax (min)
Note: unit min is implicit; provide only the numeric part.

Q: Query: Tmax; subject: CCCCC1(CCCC)CS(=O)(=O)c2ccc(N(C)C)cc2[C@@H](c2ccc(OCc3ccc(C[N+]45CCN(CC4)CC5)cc3)cc2)[C@H]1O
Result: 30

* * *

Experiment: Toxicokinetics of LUM001 free form, 13-week oral capsule toxicity study in dogs
Format: in vivo, Beagle dogs
Conditions: female, Beagle, dog, plasma, oral, 100 mg/kg, Day 91; 100 mg/kg; F
property: Tmax (h)
Note: unit h is implicit; provide only the numeric part.

Q: Query: Tmax; subject: CCCCC1(CCCC)CS(=O)(=O)c2ccc(N(C)C)cc2[C@@H](c2ccc(OCc3ccc(C[N+]45CCN(CC4)CC5)cc3)cc2)[C@H]1O
Result: 1.75

* * *

Assay: Toxicokinetics of LUM001 free form, 13-week oral capsule toxicity study in dogs
Type: in vivo, Beagle dogs
Conditions: both sexes, Beagle, dog, plasma, oral, 100 mg/kg, Day 1; 100 mg/kg; Comb
property: Tmax
The answer should read as a number with its unit following.

Q: Query: Tmax; subject: CCCCC1(CCCC)CS(=O)(=O)c2ccc(N(C)C)cc2[C@@H](c2ccc(OCc3ccc(C[N+]45CCN(CC4)CC5)cc3)cc2)[C@H]1O [LUM001]
Result: 1.38 h

* * *

Assay: Pharmacokinetics of LUM001 after oral solution and capsule in dogs
Assay type: in vivo, Beagle dogs
Conditions: female, Beagle, dog, plasma, po, 7.5 mg/kg, oral capsule 7.5 mg/kg free form, fasted
property: Cmax
The answer should read as a number with its unit following.

Q: Query: Cmax; subject: CCCCC1(CCCC)CS(=O)(=O)c2ccc(N(C)C)cc2[C@@H](c2ccc(OCc3ccc(C[N+]45CCN(CC4)CC5)cc3)cc2)[C@H]1O [LUM001]
Result: 4.24 ng/mL

* * *

Assay: Toxicokinetics of LUM001 free form, 13-week oral capsule toxicity study in dogs
Type: in vivo, Beagle dogs
Conditions: both sexes, Beagle, dog, plasma, oral, 100 mg/kg, Day 1; 100 mg/kg; Comb
property: Cmax
The answer should read as a number with its unit following.

Q: Query: Cmax; subject: CCCCC1(CCCC)CS(=O)(=O)c2ccc(N(C)C)cc2[C@@H](c2ccc(OCc3ccc(C[N+]45CCN(CC4)CC5)cc3)cc2)[C@H]1O
Result: 90.7 ng/mL

* * *

Assay: Toxicokinetics of LUM001 free form, 13-week oral gavage toxicity study in rats
Type: in vivo
Conditions: male, CD IGS, rat, plasma, oral; Day 1; 75.0 mg/kg; M
property: Cmax
The answer should read as a number with its unit following.

Q: Query: Cmax; subject: CCCCC1(CCCC)CS(=O)(=O)c2ccc(N(C)C)cc2[C@@H](c2ccc(OCc3ccc(C[N+]45CCN(CC4)CC5)cc3)cc2)[C@H]1O [LUM001]
Result: 2.55 ng/mL

* * *

Experiment: Pharmacokinetics of LUM001 after oral gavage in rats
Assay type: in vivo
Conditions: both sexes, Sprague Dawley, rat, plasma, 5 mg/kg, single oral gavage 5 mg/kg free form, fed
property: Cmax (ng/mL)
Note: unit ng/mL is implicit; provide only the numeric part.

Q: Query: Cmax; subject: CCCCC1(CCCC)CS(=O)(=O)c2ccc(N(C)C)cc2[C@@H](c2ccc(OCc3ccc(C[N+]45CCN(CC4)CC5)cc3)cc2)[C@H]1O [LUM001]
Result: 3.58
